These entries and their values trace back to patent US20230348456A1.

- target under test: recombinant human Myt1 (Homo sapiens (Human), UniProt Q99640)
- Sequence (Q99640 whole entry): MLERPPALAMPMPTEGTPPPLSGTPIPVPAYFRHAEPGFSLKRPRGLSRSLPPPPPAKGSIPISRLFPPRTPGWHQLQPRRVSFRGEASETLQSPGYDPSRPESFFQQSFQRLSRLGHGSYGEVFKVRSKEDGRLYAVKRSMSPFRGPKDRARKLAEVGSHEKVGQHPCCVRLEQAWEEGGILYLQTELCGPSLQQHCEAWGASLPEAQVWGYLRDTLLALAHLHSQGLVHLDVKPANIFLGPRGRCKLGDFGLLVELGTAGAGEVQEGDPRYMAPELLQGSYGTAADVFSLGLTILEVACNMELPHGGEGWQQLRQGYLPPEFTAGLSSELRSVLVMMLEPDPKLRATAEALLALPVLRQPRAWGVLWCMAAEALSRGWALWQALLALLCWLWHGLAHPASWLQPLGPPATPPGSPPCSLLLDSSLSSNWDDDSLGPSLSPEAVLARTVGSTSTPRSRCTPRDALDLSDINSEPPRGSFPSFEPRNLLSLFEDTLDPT
- assay text: Myt1 enzymatic assay (ADP-Glo kinase assay)
- measurement setup: recombinant human Myt1 18 nM, ATP 10 μM
observable: IC50 (nM)
Dear colleague, please return just the value in nM, with no unit written.

>>> experimental_result("N#Cc1ccc(-c2cc(-c3cccc4[nH]ncc34)c(N)c3c(=O)[nH]cnc23)s1 [Compound 118]")
11

IC50 recorded for this compound, Nc1c(-c2cccc3[nH]ncc23)cc(-c2cccc(OC[C@H]3CCCO3)n2)c2nc(-c3ccncc3)[nH]c(=O)c12 [Compound 70] , is 4

* * *

- target under test: recombinant human Myt1 (Homo sapiens (Human), UniProt Q99640)
- assay text: Myt1 enzymatic assay (ADP-Glo kinase assay)
- measurement setup: recombinant human Myt1 18 nM, ATP 10 μM
pIC50: −log10 of the molar value.
Threshold check on pIC50: at or above 8 gives True, strictly below gives False.

Below are worked cases with known answers.
>>> assigned_class("Nc1c(-c2cccc3[nH]ncc23)cc(-c2ccccn2)c2nc[nH]c(=O)c12")
"False"
>>> assigned_class("Nc1c(-c2cccc3[nH]ncc23)cc(Br)c2nc(-c3ccc(N4CCC(O)CC4)nc3)[nH]c(=O)c12")
"False"
>>> assigned_class("Cc1ccc2[nH]ncc2c1-c1cc(-c2ccc(F)cn2)c2c(c1N)C(=O)NC2")
"False"
>>> assigned_class("Nc1c(-c2cccc3[nH]ncc23)cc(-c2nccs2)c2nc(CCc3cccnc3)[nH]c(=O)c12")
"False"
>>> assigned_class("Cc1ccc(O)cc1-c1cc(-c2ccccn2)c2c(c1N)C(=O)NC2")
"False"
>>> assigned_class("Nc1c(-c2cccc3[nH]ncc23)cc(-c2nc(C(F)(F)F)cs2)c2nc[nH]c(=O)c12")
"False"

Does the compound `CNC(=O)c1csc(-c2cc(-c3cc(O)ccc3C)c(N)c3c2CNC3=O)n1` have recorded pIC50 that is 8 or more?
False

Answer whether pIC50 of `CNC(=O)c1cnc(-c2cc(-c3cc(O)ccc3C)c(N)c3c2CNC3=O)s1` is greater than or equal to 8.
False

* * *

- target under test: recombinant human Myt1 (Homo sapiens (Human), UniProt Q99640)
- assay text: Myt1 enzymatic assay (ADP-Glo kinase assay)
- measurement setup: recombinant human Myt1 18 nM, ATP 10 μM
- Method: Detection of Myt1 kinase activity utilized a recombinant human Myt1 kinase assay measuring the hydrolysis of ATP using a commercially available ADP-Glo Assay (ADP-Glo™ Kinase Assay from Promega, 10 000 assays, #V9102). […] Luminescence was read using the Envision (250 ms integration). The IC50 and the % max inhibition were calculated for each inhibitor compound tested.
observable: IC50 (nM)
Give a bare numeral; the unit nM is implied.

>>> experimental_result("Nc1c(-c2cccc3[nH]ncc23)cc(-c2nc(Cl)cs2)c2nc[nH]c(=O)c12")
13

Data point: `N#Cc1cccc(-c2nc3c(-c4nccs4)cc(-c4cccc5[nH]ncc45)c(N)c3c(=O)[nH]2)c1` ; IC50 = 6

response.value for `CC(=O)Nc1ccc(-c2nc3c(-c4nccs4)cc(-c4cccc5[nH]ncc45)c(N)c3c(=O)[nH]2)cc1` (field: IC50) = 78

Summary for this compound, Nc1c(-c2cccc3[nH]ncc23)cc(Br)c2nc(-c3ccc(NC4CCOC4)nc3)[nH]c(=O)c12 (centres unmarked) : IC50 is 3

* * *

Reported IC50 values for the following molecules.
- target under test: recombinant human Myt1 (Homo sapiens (Human))
- assay text: Myt1 enzymatic assay (ADP-Glo kinase assay)
- measurement setup: recombinant human Myt1 18 nM, ATP 10 μM
Provide only the numeric value, understood in nM.

Sample answers from the record:
>>> experimental_result("N#Cc1cnc(-c2cc(-c3cccc4[nH]ncc34)c(N)c3c(=O)[nH]cnc23)s1")
5
>>> experimental_result("CN1CCC(n2cc(-c3cc(-c4cccc5[nH]ncc45)c(N)c4c(=O)[nH]c(-c5ccncc5)nc34)cn2)CC1")
3
>>> experimental_result("COCc1nc2c(-c3nccs3)cc(-c3cccc4[nH]ncc34)c(N)c2c(=O)[nH]1")
20

`Cc1ccc(O)cc1-c1cc(-c2ncc(C(=O)NC(C)C)s2)c2c(c1N)C(=O)NC2` yielded IC50 of 477

The molecule listed as Cc1ccc(O)c(C)c1-c1cc(C2CC2)c2nc(-c3ccncc3)[nH]c(=O)c2c1N (single isomer, unassigned) [Compound 22] has a reported IC50 of 3

The recorded IC50 for entry `Nc1c(-c2cccc3[nH]ncc23)cc(C2=CCOCC2)c2nc(-c3ccncc3)[nH]c(=O)c12` equals 3

The reported value for `Cc1ccc(O)cc1-c1cc(-c2nc(C(F)(F)F)cs2)c2c(c1N)C(=O)NC2` in terms of IC50 is 682

The molecule listed as `Cc1ncccc1-c1nc2c(-c3nccs3)cc(-c3cccc4[nH]ncc34)c(N)c2c(=O)[nH]1` shows IC50 equal to 94

Entry under test: `Nc1c(-c2cccc3[nH]ncc23)cc(-c2nccs2)c2nc(-c3ccncc3)[nH]c(=O)c12` . Its IC50 was 9

Per the record, `Cn1ccc(-c2cc(-c3cccc4[nH]ncc34)c(N)c3c(=O)[nH]cnc23)n1` has IC50 of 23

Entry under test: `Nc1c(-c2cccc3[nH]ncc23)ccc2nc[nH]c(=O)c12` . Its IC50 was 122

Entry under test: `Cc1ccc(O)cc1-c1cc(-c2ncc(C(=O)O)s2)c2c(c1N)C(=O)NC2` . Its IC50 was 1860

The molecule listed as `Cc1ccc2[nH]ncc2c1-c1cc(-c2cccc(OCCN3CCCC3)n2)c2nc[nH]c(=O)c2c1N` shows IC50 equal to 13

IC50 in this record for `Cc1ccc(O)cc1-c1cc(-c2nc(Cl)cs2)c2c(c1N)C(=O)NC2` : 253

* * *

- target under test: recombinant human Myt1 (Homo sapiens (Human))
- assay text: Myt1 enzymatic assay (ADP-Glo kinase assay)
- measurement setup: recombinant human Myt1 18 nM, ATP 10 μM
observable: pIC50
For clarity, pIC50 is expressed as the negative log10 of concentration in mol/L.

Known pIC50 results, listed for orientation:
>>> experimental_result("CN1CC=C(c2cc(-c3cccc4[nH]ncc34)c(N)c3c(=O)[nH]c(-c4ccncc4)nc23)CC1")
8.15
>>> experimental_result("Nc1c(-c2cccc3[nH]ncc23)cc(-n2cc(F)cn2)c2nc(-c3cccnc3)[nH]c(=O)c12")
8.22
>>> experimental_result("Nc1c(-c2cccc3[nH]ncc23)cc(Br)c2nc[nH]c(=O)c12")
7.62
>>> experimental_result("Cc1ccc(O)cc1-c1cc(-c2nccs2)c2cc[nH]c(=O)c2c1N")
7.92
>>> experimental_result("Cc1ccc(O)c(C)c1-c1cc(-c2cnn(C3CC3)c2)c2nc(-c3ccncc3)[nH]c(=O)c2c1N (atropisomer, axis not shown)")
8.70

Per the record, `COCCNc1cc(-c2nc3c(Br)cc(-c4cccc5[nH]ncc45)c(N)c3c(=O)[nH]2)ccn1` has pIC50 of 7.96

Memo: `Nc1c(-c2cccc3[nH]ncc23)cc(-c2cnn(C3CC3)c2)c2nc(-c3ccncc3)[nH]c(=O)c12` , reported pIC50: 8.52

get_value(item= `Nc1c(-c2cccc3[nH]ncc23)cc(-c2cccc(C(F)(F)F)c2)c2nc[nH]c(=O)c12` , readout=pIC50) returns 6.00

Reported pIC50 of `Cn1ccc(-c2cc(-c3cccc4[nH]ncc34)c(N)c3c(=O)[nH]c(-c4ccncc4)nc23)n1` : 8.70

The molecule `Nc1c(-c2cccc3[nH]ncc23)cc(-c2ccc(F)cc2)c2nc[nH]c(=O)c12` showed pIC50 equal to 7.52

Looking up `Cc1ccc(O)cc1-c1cc(-c2ccccc2)c2c(c1N)C(=O)NC2` , I see its pIC50 listed as 5.97

Form field pIC50, entry `Nc1c(-c2cccc3[nH]ncc23)cc(-c2cnn(C3COC3)c2)c2nc(-c3ccncc3)[nH]c(=O)c12` : 9.00

`Nc1c(-c2cccc3[nH]ncc23)cc(Br)c2nc(-c3ccncc3)[nH]c(=O)c12` has a reported pIC50 of 8.30

The molecule `Cc1ccc2[nH]ncc2c1-c1cc(-c2ccnnc2)c2c(c1N)C(=O)NC2` showed pIC50 equal to 5.91

* * *

- target under test: recombinant human Myt1 (Homo sapiens (Human))
- assay text: Myt1 enzymatic assay (ADP-Glo kinase assay)
- measurement setup: recombinant human Myt1 18 nM, ATP 10 μM
- Procedure: Detection of Myt1 kinase activity utilized a recombinant human Myt1 kinase assay measuring the hydrolysis of ATP using a commercially available ADP-Glo Assay (ADP-Glo™ Kinase Assay from Promega, 10 000 assays, #V9102). […] Luminescence was read using the Envision (250 ms integration). The IC50 and the % max inhibition were calculated for each inhibitor compound tested.
# Lookup of reported pIC50 keyed by entry
Please note pIC50 is a logarithmic value: minus log10 of concentration in mol/L. Answer with that number alone.

Solved cases (3 shown):
>>> experimental_result("CN(C)c1ccc(-c2nc3c(Br)cc(-c4cccc5[nH]ncc45)c(N)c3c(=O)[nH]2)cn1 [Compound 12]")
8.05
>>> experimental_result("Cc1ccc(O)cc1-c1cc(C2=CCOCC2)c2c(c1N)C(=O)NC2 [Compound 105]")
6.19
>>> experimental_result("Nc1c(-c2cccc3[nH]ncc23)cc(-n2cc(C(F)(F)F)cn2)c2nc(-c3ccncc3)[nH]c(=O)c12 [Compound 87]")
7.00

pIC50 measured on Nc1c(-c2cccc3[nH]ncc23)ccc2nc(-c3ccncc3)[nH]c(=O)c12 [Compound 96] = 7.17
